Tested on: NCI-H647
Test: relative viability (nuclei count vs DMSO), 5 days (fraction); higher = more cells survive
Settings: first compound 1.265 µM
readout.kind: relative viability
# respond with the number and nothing more

• Clc1ccc(Nc2nnc(Cc3ccncc3)c3ccccc23)cc1 [Vatalanib] + C[C@]1(O)C[C@@H](c2nc(-c3ccc4ccc(-c5ccccc5)nc4c3)c3c(N)nccn32)C1 [Linsitinib] (partner 1 µM) = 1.21
• Clc1ccc(Nc2nnc(Cc3ccncc3)c3ccccc23)cc1 [Vatalanib] + CC1(C)CCC(c2ccc(Cl)cc2)=C(CN2CCN(c3ccc(C(=O)NS(=O)(=O)c4ccc(N[C@H](CCN5CCOCC5)CSc5ccccc5)c(S(=O)(=O)C(F)(F)F)c4)cc3)CC2)C1 [Navitoclax] (partner 0.5 µM) = 1.05
• Clc1ccc(Nc2nnc(Cc3ccncc3)c3ccccc23)cc1 [Vatalanib] + Nc1ncn([C@H]2C[C@H](O)[C@@H](CO)O2)c(=O)n1 [Decitabine] (partner 2 µM) = 0.36

Data request: # query: relative viability of entry COc1cc(N2CCC(C(N)=O)CC2)ccc1Nc1nc(N)c(Cl)c(Nc2ccccc2S(=O)(=O)C(C)C)n1 [HG-5-88-01] + CS(=O)(=O)N1CCN(Cc2cc3nc(-c4cccc5[nH]ncc45)nc(N4CCOCC4)c3s2)CC1 [Pictilisib] (partner 1 µM)
Data returned: 0.371

###

Tested on: NCI-H2085
Experiment: relative viability (nuclei count vs DMSO), 5 days (fraction); higher = more cells survive
Details: first compound 8 µM
// NB: equality with 0.8 counts as f; only relative viability strictly below is t

Some entries whose results are on file:
* CCCCCCCCCCCC1=C(O)C(=O)C=C(O)C1=O [Embelin] + COc1cc2c(Oc3ccc(NC(=O)C4(C(=O)Nc5ccc(F)cc5)CC4)cc3F)ccnc2cc1OCCCN1CCOCC1 [Foretinib] (partner 0.25 µM) | f
* CCCCCCCCCCCC1=C(O)C(=O)C=C(O)C1=O [Embelin] + CC(C)C[C@H](NC(=O)[C@H](Cc1ccccc1)NC(=O)c1cnccn1)B(O)O [Bortezomib] (partner 0.002 µM) | f
* CCCCCCCCCCCC1=C(O)C(=O)C=C(O)C1=O [Embelin] + CC(=O)c1c(C)c2cnc(Nc3ccc(N4CCNCC4)cn3)nc2n(C2CCCC2)c1=O [Palbociclib] (partner 0.5 µM) | t

Data request: Hello, I'm reviewing records and need to know if relative viability of CCCCCCCCCCCC1=C(O)C(=O)C=C(O)C1=O [Embelin] + Nc1nc2[nH]cc(CCc3ccc(C(=O)N[C@@H](CCC(=O)O)C(=O)O)cc3)c2c(=O)[nH]1 [Pemetrexed] (partner 0.2 µM) is below 0.8. Could you check?
Data returned: f

Data request: Hello, I'm reviewing records and need to know if relative viability of CCCCCCCCCCCC1=C(O)C(=O)C=C(O)C1=O [Embelin] + Cc1nc(Nc2ncc(C(=O)Nc3c(C)cccc3Cl)s2)cc(N2CCN(CCO)CC2)n1 [Dasatinib] (partner 0.075 µM) is below 0.8. Could you check?
Data returned: t

###

System: NCI-H1993
Experiment: relative viability (nuclei count vs DMSO), 5 days (fraction); higher = more cells survive
Details: first compound 0.1265 µM
readout.kind: relative viability

- Clc1ccc(Nc2nnc(Cc3ccncc3)c3ccccc23)cc1 [Vatalanib] + N=C(N)NC(=N)NCCc1ccccc1 [Phenformin] (partner 250 µM): 0.533

Next:
Data request: # query: relative viability of entry COc1cc(N2CCC(C(N)=O)CC2)ccc1Nc1nc(N)c(Cl)c(Nc2ccccc2S(=O)(=O)C(C)C)n1 [HG-5-88-01] + Cc1nc(Nc2ncc(C(=O)Nc3c(C)cccc3Cl)s2)cc(N2CCN(CCO)CC2)n1 [Dasatinib] (partner 0.075 µM)
Data returned: 0.569
